meta.source: PubChem BioAssay (NCI)

Task for the reader: assign each of the following compounds its reported log10(TGI).
# Tested on: CAKI-1 renal
# test description: NCI tumour cell line growth inhibition, 48 h
A value of 2 here means TGI of 100 in µM, since values are log10.

Exercise: Dear colleague, I am looking for the recorded log10(TGI) of the following compound: COC(=O)/C=C(\C)CC/C=C(\C)CCC1OC1(C)C (stereo not given)
Solution: 1.35

Exercise: Dear colleague, I am looking for the recorded log10(TGI) of the following compound: CNC(=O)c1ncccc1Nc1nc(Nc2cc3c(cc2OC)CCCN3C(=O)CN(C)C)nc2[nH]ccc12
Solution: 0.86

Exercise: Dear colleague, I am looking for the recorded log10(TGI) of the following compound: COc1cccc(C2c3cc4c(cc3OC(O)C2C)OCO4)c1OC (stereo not given)
Solution: 1.14

Exercise: Dear colleague, I am looking for the recorded log10(TGI) of the following compound: COC(=O)CNC(=O)C(CSC(=O)OCC1c2ccccc2-c2ccccc21)NC(=O)CCC(NC(=O)OCC1c2ccccc2-c2ccccc21)C(=O)OC (stereo not given)
Solution: 1.30

Exercise: Dear colleague, I am looking for the recorded log10(TGI) of the following compound: O=c1/c(=C/c2ccccc2[N+](=O)[O-])sc2nnc(-c3cccnc3)n12
Solution: 0.44

Exercise: Dear colleague, I am looking for the recorded log10(TGI) of the following compound: COCC([C@@H](O)C(O)C(=O)NCC[C@@H](C)c1nc(/C=C/CC2OC3(C[C@H](O)C2C)OC(C(C[C@H](O)C(C)[C@H](O)C(C)/C=C(C)/C(C)=C/C=C/C(C)=C/C#N)OC)[C@@H](OP(=O)(O)O)C3(C)C)co1)N(C)C (stereo not given in full)
Solution: -3.49

Exercise: Dear colleague, I am looking for the recorded log10(TGI) of the following compound: CC(C)Oc1cccc(N2C(n3ccnc3)=Nc3ccncc3S2(=O)=O)c1
Solution: 1.45

Exercise: Dear colleague, I am looking for the recorded log10(TGI) of the following compound: CN(C)CCCC1(c2ccc(F)cc2)OCc2cc(-c3cccc4[nH]ccc34)ccc21 (stereo not given)
Solution: 0.44

Exercise: Dear colleague, I am looking for the recorded log10(TGI) of the following compound: O=C(/C=C/C12c3ccccc3C(c3ccccc31)C1C(=O)NC(=O)C12)c1ccccn1 (stereo not given)
Solution: 0.64

Exercise: Dear colleague, I am looking for the recorded log10(TGI) of the following compound: OCc1ccc2c(c1)CC1(C2)Cc2cc3c(cc2C1O)CCC3 (stereo not given)
Solution: 1.43

Exercise: Dear colleague, I am looking for the recorded log10(TGI) of the following compound: CCCCCOc1ccc(/C=N/Nc2cc(C)nc3ccc(Cl)cc23)cc1
Solution: 0.48

Exercise: Dear colleague, I am looking for the recorded log10(TGI) of the following compound: COC(=O)OC1C(O[C@H]2C[C@H]3[C@@H]4CC=C5C[C@@H](O)CC[C@]5(C)[C@H]4CC[C@]3(C)[C@H]2[C@H](C)C(=O)CCC(C)C)OCC(O)C1OC1OCC(O)C(O)C1OC(=O)c1ccc(OC)cc1 (stereo not given in full)
Solution: -0.35

Exercise: Dear colleague, I am looking for the recorded log10(TGI) of the following compound: CCOC(=O)c1c(N2CCCC2)[nH]c(=O)c(C(c2ccc(OC)cc2)c2c(O)c(C(=O)OCC)c(N3CCCC3)[nH]c2=O)c1O
Solution: 1.85

Exercise: Dear colleague, I am looking for the recorded log10(TGI) of the following compound: CCCCCCN(CCCCCC)C(=S)N/N=C(\C)c1ccccn1
Solution: 0.43

Exercise: Dear colleague, I am looking for the recorded log10(TGI) of the following compound: CCN(CC)CCCNc1ccc(C)c2sc3ccccc3c(=O)c12
Solution: 0.49

Exercise: Dear colleague, I am looking for the recorded log10(TGI) of the following compound: C[C@]12CC[C@H]3[C@@H](CCC4=CC(=O)CC[C@@]43C)[C@@H]1CC[C@@H]2c1csc(N)n1
Solution: 1.13

Exercise: Dear colleague, I am looking for the recorded log10(TGI) of the following compound: O=C(ON=C1c2ccccc2C(Br)C(Br)c2ccccc21)c1ccccc1 (stereo not given)
Solution: 1.37

Exercise: Dear colleague, I am looking for the recorded log10(TGI) of the following compound: CCCCCCCCCCCCCCCCCCOc1ccccc1CC(=O)NCC[N+]1(C)CCOCC1
Solution: 1.58

Exercise: Dear colleague, I am looking for the recorded log10(TGI) of the following compound: CCOC1C=CC(=O)C(CO)O1 (stereo not given)
Solution: 1.44
